Where do these numbers come from? They come from patent US20240150377A1.

target: CFTR (Homo sapiens); test: Membrane potential dye, Enteroid Assay B; format: cell-based; conditions: Table 8; human enteroid cells, 18-24 hours; acute 10 μM forskolin and 300 nM ivacaftor; read-out: Ent. B EC50
Sequence (P13569 with tags, fused parts or gaps DEL508-508): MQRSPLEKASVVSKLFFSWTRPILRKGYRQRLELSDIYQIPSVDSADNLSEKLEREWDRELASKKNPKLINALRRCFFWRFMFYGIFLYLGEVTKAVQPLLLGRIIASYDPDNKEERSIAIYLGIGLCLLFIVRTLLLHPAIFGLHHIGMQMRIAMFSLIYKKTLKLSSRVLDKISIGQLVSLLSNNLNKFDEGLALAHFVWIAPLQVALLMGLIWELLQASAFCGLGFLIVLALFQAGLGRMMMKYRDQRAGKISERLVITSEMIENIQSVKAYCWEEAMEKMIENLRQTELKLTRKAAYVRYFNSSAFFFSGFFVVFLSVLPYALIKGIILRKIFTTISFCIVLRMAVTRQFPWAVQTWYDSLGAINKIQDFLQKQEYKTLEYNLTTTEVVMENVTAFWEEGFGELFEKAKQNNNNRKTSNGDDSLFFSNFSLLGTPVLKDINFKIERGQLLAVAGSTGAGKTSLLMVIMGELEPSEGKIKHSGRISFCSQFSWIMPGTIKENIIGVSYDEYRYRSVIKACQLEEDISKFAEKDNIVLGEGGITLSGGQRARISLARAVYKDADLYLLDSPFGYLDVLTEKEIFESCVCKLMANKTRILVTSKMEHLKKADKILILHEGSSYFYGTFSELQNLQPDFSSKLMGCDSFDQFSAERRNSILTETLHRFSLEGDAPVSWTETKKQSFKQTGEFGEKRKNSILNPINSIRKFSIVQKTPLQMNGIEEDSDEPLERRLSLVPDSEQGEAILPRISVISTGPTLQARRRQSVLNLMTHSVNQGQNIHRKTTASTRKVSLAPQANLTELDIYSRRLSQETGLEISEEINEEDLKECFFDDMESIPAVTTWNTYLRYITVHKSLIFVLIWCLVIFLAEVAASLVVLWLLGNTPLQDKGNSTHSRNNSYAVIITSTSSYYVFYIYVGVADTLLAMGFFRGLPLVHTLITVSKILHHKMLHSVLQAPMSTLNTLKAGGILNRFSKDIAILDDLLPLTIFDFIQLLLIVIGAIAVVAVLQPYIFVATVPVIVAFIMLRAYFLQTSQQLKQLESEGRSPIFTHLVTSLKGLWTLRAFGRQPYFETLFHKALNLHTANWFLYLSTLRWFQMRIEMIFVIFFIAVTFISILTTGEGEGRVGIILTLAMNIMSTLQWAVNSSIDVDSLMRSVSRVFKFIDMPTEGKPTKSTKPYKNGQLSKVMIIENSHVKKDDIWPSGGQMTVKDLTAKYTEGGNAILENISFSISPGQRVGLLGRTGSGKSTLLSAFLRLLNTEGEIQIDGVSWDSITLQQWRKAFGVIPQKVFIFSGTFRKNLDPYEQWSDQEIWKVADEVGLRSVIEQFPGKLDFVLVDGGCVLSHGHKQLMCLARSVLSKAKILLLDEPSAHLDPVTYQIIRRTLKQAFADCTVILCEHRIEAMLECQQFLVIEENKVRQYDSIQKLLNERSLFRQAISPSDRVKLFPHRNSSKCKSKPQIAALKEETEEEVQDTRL
So I've got a bunch of compounds here, and I need their EC50 values.

Reported EC50 for Cc1cccc(C)c1-c1cc2nc(n1)NS(=O)(=O)c1cccc(n1)C(=O)N(Cc1ccncn1)[C@H](CC(C)(C)C)CO2 was < 1000 nM

Field EC50 (entry Cc1cccc(C)c1-c1cc2nc(n1)NS(=O)(=O)c1cccc(n1)C(=O)N(Cc1ncccn1)[C@H](CC(C)(C)C)CO2 ) reads < 1000 nM

So, CNC(=O)c1ccc(CN2C(=O)c3cccc(c3)S(=O)(=O)Nc3nc(cc(-c4c(C)cccc4C)n3)OC[C@H]2CC(C)(C)C)nc1 ? Its EC50 was < 1000 nM
